- measurement target: purified HLA DRB1*0404 (Homo sapiens, UniProt P01903+P01911, A100R/A169T/F76Y/I96L/K127E/L162R/M171V/N62H/P40V/Q125Y/R42H/S133A/S149N/S66Y/V209L/W38E)
- Construct: purified from EBV transformed homozygous cell lines or single MHC allele transfected 721.221, C1R, or fibroblast lines; made in house
- assay remarks: HLA-DR radioligand binding inhibition assay, DRB1*0404
- condition parameters: IC50 nM purified HLA DRB1 *0404, purified HLA DRB1*0404
// reported IC50 per item
Field: numeric (nM). Do not append units.

Lookup: GET /values?readout=IC50&item= CC[C@H](C)[C@H](N)C(=O)N[C@@H](CC(N)=O)C(=O)NCC(=O)N[C@H](C(=O)N1CCC[C@H]1C(=O)N[C@@H](CCC(N)=O)C(=O)N[C@@H](CCC(N)=O)C(=O)N[C@@H](Cc1c[nH]cn1)C(=O)N[C@H](C(=O)N[C@@H](CCC(N)=O)C(=O)N[C@H](C(=O)N[C@@H](CC(C)C)C(=O)N[C@@H](Cc1ccccc1)C(=O)N[C@H](C(=O)N[C@@H](C)C(=O)O)[C@@H](C)CC)C(C)C)[C@@H](C)O)[C@@H](C)CC [Peptide 9019.0139]
Found: 680

Next:
Lookup: // query IC50 value for entry CC(C)C[C@H](NC(=O)[C@H](CCC(=O)O)NC(=O)[C@@H](NC(=O)[C@@H](N)CCC(=O)O)[C@@H](C)O)C(=O)N[C@@H](CCCNC(=N)N)C(=O)N[C@@H](CCCCN)C(=O)N[C@H](C(=O)N[C@@H](CCCCN)C(=O)N[C@H](C(=O)N[C@@H](CC(C)C)C(=O)NCC(=O)N[C@@H](CO)C(=O)NCC(=O)N[C@@H](C)C(=O)N[C@@H](Cc1ccccc1)C(=O)O)C(C)C)C(C)C [Peptide 9019.0073]
Found: 27

Lookup: Would you kindly share the measured IC50 for CC[C@H](C)[C@H](NC(=O)[C@@H](NC(=O)[C@@H]1CCCN1C(=O)[C@H](C)N)[C@@H](C)O)C(=O)N[C@@H](CCCNC(=N)N)C(=O)NCC(=O)N[C@@H](CC(=O)O)C(=O)N1CCC[C@H]1C(=O)N[C@@H](CCC(=O)O)C(=O)N[C@@H](CS)C(=O)N[C@@H](Cc1c[nH]cn1)C(=O)N[C@@H](CC(C)C)C(=O)N[C@@H](Cc1ccccc1)C(=O)N[C@@H](Cc1ccc(O)cc1)C(=O)N[C@@H](CC(N)=O)C(=O)O [Peptide 9019.0022] ?
Found: 2910

###

- measurement target: purified HLA DRB1*0101 (Homo sapiens, UniProt P01903+P01911, A100R/D57E/F55L/F60I/F76Y/I96L/L162R/M171V/P40L/Q125E/R42F/V115G/Y59C)
- Construct: purified from EBV transformed homozygous cell lines or single MHC allele transfected 721.221, C1R, or fibroblast lines; made in house
- assay remarks: HLA-DR radioligand binding inhibition assay, DRB1*0101
- condition parameters: IC50 nM purified HLA DRB1 *0101, purified HLA DRB1*0101
Threshold 1000 nM: IC50 strictly smaller gives 1, otherwise -1.

Lookup: API: query returns whether the compound falls strictly under 1000 nM in IC50. Query: CC[C@H](C)[C@H](NC(=O)[C@@H](N)CO)C(=O)N[C@H](C(=O)N[C@H](C(=O)N[C@@H](CO)C(=O)N[C@@H](C)C(=O)N[C@@H](CO)C(=O)NCC(=O)N[C@H](C(=O)N[C@@H](CO)C(=O)N1CCC[C@H]1C(=O)NCC(=O)N[C@@H](CC(C)C)C(=O)N[C@@H](CO)C(=O)N[C@@H](C)C(=O)O)[C@@H](C)O)C(C)C)[C@@H](C)O [Peptide 9019.0143]
Found: -1

Lookup: Find out if reported IC50 for CSCC[C@H](NC(=O)[C@H](C)NC(=O)[C@H](CCCNC(=N)N)NC(=O)[C@H](CC(C)C)NC(=O)[C@@H](NC(=O)[C@H](CCCNC(=N)N)NC(=O)[C@H](CC(=O)O)NC(=O)[C@H](CC(N)=O)NC(=O)[C@H](CC(C)C)NC(=O)[C@H](CC(C)C)NC(=O)[C@H](CC(N)=O)NC(=O)[C@H](C)NC(=O)[C@@H](N)CC(=O)O)C(C)C)C(=O)N[C@@H](CC(C)C)C(=O)N[C@@H](CCCCN)C(=O)O [Peptide 9019.0146] is less than 1000 nM
Found: -1

Lookup: is_below(IC50, 1000 nM) for CC(C)C[C@H](NC(=O)[C@@H](NC(=O)[C@@H](NC(=O)[C@@H]1CCCN1C(=O)[C@H](CC(=O)O)NC(=O)[C@H](CO)NC(=O)[C@H](CCCNC(=N)N)NC(=O)[C@H](CC(N)=O)NC(=O)[C@H](C)NC(=O)[C@H](CO)NC(=O)[C@@H](NC(=O)[C@H](CO)NC(=O)[C@H](CC(N)=O)NC(=O)[C@@H](N)CCC(N)=O)C(C)C)C(C)C)[C@@H](C)O)C(=O)N[C@@H](CC(=O)O)C(=O)O [Peptide 9019.0136] ?
Found: 1

***
Lookup: API: query returns whether the compound falls strictly under 1000 nM in IC50. Query: CC(C)C[C@H](NC(=O)[C@H](CCCNC(=N)N)NC(=O)[C@H](CCC(=O)O)NC(=O)[C@@H]1CCCN1)C(=O)N[C@@H](C)C(=O)N[C@@H](C)C(=O)N[C@@H](CS)C(=O)NCC(=O)N1CCC[C@H]1C(=O)N1CCC[C@H]1C(=O)N1CCC[C@H]1C(=O)N[C@H](C(=O)N[C@@H](C)C(=O)N1CCC[C@H]1C(=O)N1CCC[C@H]1C(=O)O)C(C)C [Peptide 9019.0179]
Found: 1

###

- measurement target: purified HLA DRB1*0401 (Homo sapiens, UniProt P01903+P01911, A100K/A169T/F76Y/I96L/K127E/L162R/M171V/N62H/P40V/Q125Y/R42H/S133A/S149N/S66Y/V115G/V209L/W38E)
- Construct: purified from EBV transformed homozygous cell lines or single MHC allele transfected 721.221, C1R, or fibroblast lines; made in house
- assay remarks: HLA-DR radioligand binding inhibition assay, DRB1*0401
- condition parameters: IC50 nM purified HLA DRB1 *0401, purified HLA DRB1*0401
measurement type: IC50 (nM)
The figure you give is taken to be in nM; do not add the unit.

Lookup: I'd like to know its IC50. The compound in question is CC[C@H](C)[C@H](NC(=O)[C@@H](NC(=O)[C@H](CO)NC(=O)[C@H](CC(=O)O)NC(=O)[C@@H](N)CO)C(C)C)C(=O)N[C@@H](CC(C)C)C(=O)N[C@@H](CC(N)=O)C(=O)N[C@H](C(=O)N[C@@H](CC(C)C)C(=O)N[C@@H](Cc1ccc(O)cc1)C(=O)NCC(=O)N1CCC[C@H]1C(=O)N[C@@H](CC(=O)O)C(=O)N[C@@H](C)C(=O)N1CCC[C@H]1C(=O)O)C(C)C [Peptide 9019.0119]
Found: 255

Lookup: Need IC50, item CSCC[C@H](NC(=O)[C@@H](NC(=O)[C@H](CO)NC(=O)[C@H](CC(=O)O)NC(=O)[C@@H](NC(=O)[C@H](Cc1c[nH]cn1)NC(=O)[C@H](CC(N)=O)NC(=O)[C@H](CCC(=O)O)NC(=O)[C@@H](NC(=O)[C@H](CC(C)C)NC(=O)CNC(=O)CNC(=O)[C@H](CCC(=O)O)NC(=O)[C@@H](N)CO)C(C)C)C(C)C)[C@@H](C)O)C(=O)N[C@@H](CC(N)=O)C(=O)O [Peptide 9019.0183]
Found: 1200

Lookup: Which measured IC50 value corresponds to CC[C@H](C)[C@H](NC(=O)[C@H](CCCNC(=N)N)NC(=O)[C@H](Cc1c[nH]c2ccccc12)NC(=O)[C@H](CO)NC(=O)[C@H](Cc1ccc(O)cc1)NC(=O)[C@@H](N)CCC(N)=O)C(=O)N[C@@H](CC(N)=O)C(=O)NCC(=O)N[C@H](C(=O)N1CCC[C@H]1C(=O)N[C@@H](CCC(N)=O)C(=O)N[C@@H](CCC(N)=O)C(=O)N[C@@H](Cc1c[nH]cn1)C(=O)N[C@H](C(=O)N[C@@H](CCC(N)=O)C(=O)O)[C@@H](C)O)[C@@H](C)CC [Peptide 9019.0138] ?
Found: 43

---
Lookup: Reported IC50 for CC[C@H](C)[C@H](NC(=O)[C@@H](N)CO)C(=O)N[C@H](C(=O)N[C@H](C(=O)N[C@@H](CO)C(=O)N[C@@H](C)C(=O)N[C@@H](CO)C(=O)NCC(=O)N[C@H](C(=O)N[C@@H](CO)C(=O)N1CCC[C@H]1C(=O)NCC(=O)N[C@@H](CC(C)C)C(=O)N[C@@H](CO)C(=O)N[C@@H](C)C(=O)O)[C@@H](C)O)C(C)C)[C@@H](C)O [Peptide 9019.0143] : what is it?
Found: 75
